Target: KDR (human, UniProt P35968 20-1356)
Sequence (P35968 20-1356): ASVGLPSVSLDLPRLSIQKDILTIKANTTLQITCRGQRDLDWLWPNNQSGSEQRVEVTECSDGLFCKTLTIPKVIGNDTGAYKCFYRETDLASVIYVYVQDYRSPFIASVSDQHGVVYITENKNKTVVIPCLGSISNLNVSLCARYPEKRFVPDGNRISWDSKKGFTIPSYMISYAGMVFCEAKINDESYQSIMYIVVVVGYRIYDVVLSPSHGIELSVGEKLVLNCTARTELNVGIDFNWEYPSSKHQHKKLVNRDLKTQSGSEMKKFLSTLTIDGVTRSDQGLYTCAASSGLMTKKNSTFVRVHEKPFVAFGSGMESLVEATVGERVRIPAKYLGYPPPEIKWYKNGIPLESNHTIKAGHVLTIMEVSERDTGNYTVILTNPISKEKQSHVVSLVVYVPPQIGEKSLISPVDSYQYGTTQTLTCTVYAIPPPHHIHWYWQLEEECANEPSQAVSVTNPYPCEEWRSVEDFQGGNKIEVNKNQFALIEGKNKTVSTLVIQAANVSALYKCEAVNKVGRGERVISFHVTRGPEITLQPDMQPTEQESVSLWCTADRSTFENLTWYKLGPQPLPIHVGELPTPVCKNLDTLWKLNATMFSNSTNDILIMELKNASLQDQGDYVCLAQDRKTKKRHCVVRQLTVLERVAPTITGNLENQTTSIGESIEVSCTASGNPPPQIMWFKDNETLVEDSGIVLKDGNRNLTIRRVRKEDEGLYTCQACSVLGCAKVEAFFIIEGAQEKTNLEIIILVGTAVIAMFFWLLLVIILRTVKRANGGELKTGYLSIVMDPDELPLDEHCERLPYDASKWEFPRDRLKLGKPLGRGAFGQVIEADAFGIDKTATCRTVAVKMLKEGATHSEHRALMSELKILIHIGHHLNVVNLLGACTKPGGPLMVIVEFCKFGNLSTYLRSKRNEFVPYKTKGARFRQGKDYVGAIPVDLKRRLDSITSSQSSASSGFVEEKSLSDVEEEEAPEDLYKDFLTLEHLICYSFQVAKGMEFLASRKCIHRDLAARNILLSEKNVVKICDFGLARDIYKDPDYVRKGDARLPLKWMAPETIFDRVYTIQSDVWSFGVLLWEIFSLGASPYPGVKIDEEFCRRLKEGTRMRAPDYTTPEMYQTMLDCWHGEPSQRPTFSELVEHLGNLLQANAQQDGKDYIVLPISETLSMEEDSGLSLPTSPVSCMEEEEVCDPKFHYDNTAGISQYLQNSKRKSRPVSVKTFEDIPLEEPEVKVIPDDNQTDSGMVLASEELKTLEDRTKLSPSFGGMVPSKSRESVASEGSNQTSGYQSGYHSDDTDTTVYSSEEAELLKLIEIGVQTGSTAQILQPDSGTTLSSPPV
Experiment: cell-based or functional assay
MEASURED_QUANTITY: Activity at 133 nM Antibody Concentration (% Survival Inhibition), N = 1 (%)
Output spec: scalar in %, unitless text.

Sample 30D7 (antibody, V domains shown) VH: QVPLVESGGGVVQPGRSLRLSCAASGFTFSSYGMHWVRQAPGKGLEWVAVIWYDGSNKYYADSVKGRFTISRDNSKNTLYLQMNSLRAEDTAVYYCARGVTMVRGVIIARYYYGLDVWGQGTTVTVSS VL: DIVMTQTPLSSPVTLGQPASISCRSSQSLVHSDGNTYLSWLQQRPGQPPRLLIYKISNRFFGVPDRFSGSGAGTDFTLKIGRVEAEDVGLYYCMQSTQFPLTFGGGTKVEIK — what was its Activity at 133 nM Antibody Concentration (% Survival Inhibition), N = 1?
-9

Return reported Activity at 133 nM Antibody Concentration (% Survival Inhibition), N = 1; argument: 33E1 (antibody, V domains shown) VH: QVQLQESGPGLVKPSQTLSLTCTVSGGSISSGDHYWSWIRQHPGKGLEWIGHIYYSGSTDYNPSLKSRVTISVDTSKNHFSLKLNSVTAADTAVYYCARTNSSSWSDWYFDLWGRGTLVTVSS VL: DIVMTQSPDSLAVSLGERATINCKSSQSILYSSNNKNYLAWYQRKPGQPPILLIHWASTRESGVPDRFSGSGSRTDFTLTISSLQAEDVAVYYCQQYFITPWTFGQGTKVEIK
86

# input binder: 21H6 (antibody, V domains shown) VH: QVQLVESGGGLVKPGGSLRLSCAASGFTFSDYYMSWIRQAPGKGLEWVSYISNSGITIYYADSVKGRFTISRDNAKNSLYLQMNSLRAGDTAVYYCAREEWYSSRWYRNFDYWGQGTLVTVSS VL: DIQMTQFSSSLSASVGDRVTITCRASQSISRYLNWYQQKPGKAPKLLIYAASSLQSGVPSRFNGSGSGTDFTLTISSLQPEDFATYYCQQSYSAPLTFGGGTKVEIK ; wanted: its Activity at 133 nM Antibody Concentration (% Survival Inhibition), N = 1
105

Look at this binder and give its reported Activity at 133 nM Antibody Concentration (% Survival Inhibition), N = 1. 29F7 (antibody, V domains shown) VH: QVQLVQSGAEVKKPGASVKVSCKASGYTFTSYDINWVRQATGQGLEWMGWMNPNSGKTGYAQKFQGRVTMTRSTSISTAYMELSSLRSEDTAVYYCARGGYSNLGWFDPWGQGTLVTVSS VL: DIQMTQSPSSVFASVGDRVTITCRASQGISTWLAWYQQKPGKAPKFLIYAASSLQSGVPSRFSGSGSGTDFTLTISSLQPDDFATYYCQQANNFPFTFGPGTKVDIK
3

Ref: patent US20100260765A1
